Give measured IC50 for each item. Keep answers brief.
MEASUREMENT TARGET: CDK7/CycH/Mat1 (Homo sapiens)
Sequence (P50613 whole entry): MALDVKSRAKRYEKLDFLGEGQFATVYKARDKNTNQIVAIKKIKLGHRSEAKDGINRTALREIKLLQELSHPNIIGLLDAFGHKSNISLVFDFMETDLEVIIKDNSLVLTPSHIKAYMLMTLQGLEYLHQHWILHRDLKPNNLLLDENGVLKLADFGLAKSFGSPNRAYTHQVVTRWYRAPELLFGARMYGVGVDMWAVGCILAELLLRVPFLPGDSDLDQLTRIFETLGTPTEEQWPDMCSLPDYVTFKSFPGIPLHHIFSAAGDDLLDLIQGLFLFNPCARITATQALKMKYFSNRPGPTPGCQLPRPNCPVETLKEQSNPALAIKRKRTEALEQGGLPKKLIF
TEST METHOD NOTES: CDK7 Enzymatic Activity Assay (Lance Kinase Activity Assay, FRET)
Type: biochemical
REPORTED CONDITIONS: CDK7/CycH/Mat1, 25 μM ATP final; class ranges; read-out: CDK7: IC50 [nM] for CDK7 inhibition

{"columns": ["MOLECULE", "MEASUREMENT TARGET", "IC50"],
 "data": [
  ["CC(C)c1cnn2c(NCc3cccc4cc[n+]([O-])cc34)nc(O[C@@H]3CCCNC3)nc12", "CDK7/CycH/Mat1 (Homo sapiens)", "< 5 nM"],
  ["CCCNC(=O)Nc1ccccc1CNc1nc(O[C@@H]2CCCNC2)nc2c(C(C)C)cnn12", "CDK7/CycH/Mat1 (Homo sapiens)", "< 5 nM"],
  ["CC(C)c1cnn2c(NCc3ccccc3-c3cccnc3)nc(OC3CCN(C)CC3)nc12", "CDK7/CycH/Mat1 (Homo sapiens)", "< 5 nM"],
  ["CC(C)c1cnn2c(NCc3ccccc3-n3cccn3)nc(N3CCC4(CCNC4)CC3)nc12", "CDK7/CycH/Mat1 (Homo sapiens)", "5 to 10 nM"],
  ["CC(C)c1cnn2c(NCc3ccccc3-n3cc(Cl)cn3)nc(O[C@@H]3CCCNC3)nc12", "CDK7/CycH/Mat1 (Homo sapiens)", "< 5 nM"],
  ["CC(C)c1cnn2c(NCc3ccccc3-n3cccn3)nc(NCC3CCNC3)nc12 (centres unmarked)", "CDK7/CycH/Mat1 (Homo sapiens)", "> 25 nM"],
  ["Cc1nccn1-c1ccccc1CNc1nc(OC2CCN(C)CC2)nc2c(C(C)C)cnn12", "CDK7/CycH/Mat1 (Homo sapiens)", "< 5 nM"]
]}

Now consider a different molecule.
Enquiry: State its IC50: CC(C)c1cnn2c(NCc3ccccc3-n3cccn3)nc(N3CCC4(CCCN4)C3)nc12 (centres unmarked)
Return: < 5 nM
